- Test system: 422866-222-R5-J1-PDC spheroids with HUVEC/MSC, viability
- assay_name: Anticancer human tumor 422866-222-R5-J1-PDC patient-derived pancreatic adenocarcinoma cell line growth inhibition [GQUAD]
- condition_summary: curve of first compound; second compound 0.0316 µM
Recorded measurements of IC50, one per entry

{"molecule": "Cn1ncnc1[C@H]1c2n[nH]c(=O)c3cc(F)cc(c23)N[C@@H]1c1ccc(F)cc1 + Cc1cnc(CNC(=O)c2c(=O)c3ccc(N4CCCN(C)CC4)nc3n3c2sc2ccccc23)cn1", "tgt": "422866-222-R5-J1-PDC spheroids with HUVEC/MSC, viability", "IC50": "> 0.316 µM"}
{"molecule": "CC(C)n1c(=O)n(C)c2cnc3cc(F)c(-c4ccc(OCCCN5CCCCC5)nc4)cc3c21 + CN(C)c1ccc(Nc2c3ccc(NC(=O)CCN4CCCC4)cc3nc3cc(NC(=O)CCN4CCCC4)ccc23)cc1", "tgt": "422866-222-R5-J1-PDC spheroids with HUVEC/MSC, viability", "IC50": "> 10 µM"}
{"molecule": "Cn1ncnc1[C@H]1c2n[nH]c(=O)c3cc(F)cc(c23)N[C@@H]1c1ccc(F)cc1 + Cc1[nH]c2ccc(F)cc2c1-c1nc2c3cccnc3c3ncccc3c2[nH]1", "tgt": "422866-222-R5-J1-PDC spheroids with HUVEC/MSC, viability", "IC50": "> 0.316 µM"}
{"molecule": "O=c1[nH]cc(F)c(=O)[nH]1 + Cc1cnc(CNC(=O)c2c(=O)c3ccc(N4CCCN(C)CC4)nc3n3c2sc2ccccc23)cn1", "tgt": "422866-222-R5-J1-PDC spheroids with HUVEC/MSC, viability", "IC50": "> 10 µM"}
{"molecule": "CC1COCCN1c1cc(-c2ccnn2C)c2ccnc(-c3ccn[nH]3)c2n1 (stereo unspecified) + Cc1cnc(CNC(=O)c2c(=O)c3ccc(N4CCCN(C)CC4)nc3n3c2sc2ccccc23)cn1", "tgt": "422866-222-R5-J1-PDC spheroids with HUVEC/MSC, viability", "IC50": "> 10 µM"}
{"molecule": "CC1COCCN1c1cc(C2(O)CC3CCC(C2)O3)c2cnn(-c3ccn[nH]3)c2n1 (stereo unspecified) + Cc1cnc(CNC(=O)c2c(=O)c3ccc(N4CCCN(C)CC4)nc3n3c2sc2ccccc23)cn1", "tgt": "422866-222-R5-J1-PDC spheroids with HUVEC/MSC, viability", "IC50": "> 10 µM"}

###

- System: 422866-222-R5-J1-PDC spheroids with HUVEC/MSC, viability
- assay_name: Anticancer human tumor 422866-222-R5-J1-PDC cell line growth inhibition [GQUAD];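 further: spheroids exposed to compounds for seven days before reading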;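 on viability, T/C: percent viability relative to DMSO vehicle control taken as 100%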
- condition_summary: second compound 1 µM; first compound 0.00999 µM; stronger effect = lower value
- From the text: DNA G-quadruplex Stabilizer Agents in Combinations in Complex Spheroids A high-throughput screen of multi-cell type tumor spheroids was designed to identify active combinations of DNA G-quadruplex stabilizer agents and targeted small molecules. […] Compounds. […] If the clinical Cmax for an agent had not been determined, the highest concentration tested was 10 microM. […]
Recorded measurements of viability, T/C, one per entry
parameter: viability, T/C

{"molecule": "Cc1[nH]c2ccccc2c1CCNCc1ccc(/C=C/C(=O)NO)cc1 + Cc1cnc(CNC(=O)c2c(=O)c3ccc(N4CCCN(C)CC4)nc3n3c2sc2ccccc23)cn1", "tgt": "422866-222-R5-J1-PDC spheroids with HUVEC/MSC, viability", "assay_result": "74.3%"}
{"molecule": "CC[C@@]1(O)C(=O)OCc2c1cc1n(c2=O)Cc2cc3c(CN(C)C)c(O)ccc3nc2-1 + CN(C)c1ccc(Nc2c3ccc(NC(=O)CCN4CCCC4)cc3nc3cc(NC(=O)CCN4CCCC4)ccc23)cc1", "tgt": "422866-222-R5-J1-PDC spheroids with HUVEC/MSC, viability", "assay_result": "78.6%"}
{"molecule": "Cc1[nH]c2ccccc2c1CCNCc1ccc(/C=C/C(=O)NO)cc1 + CN(C)c1ccc(Nc2c3ccc(NC(=O)CCN4CCCC4)cc3nc3cc(NC(=O)CCN4CCCC4)ccc23)cc1", "tgt": "422866-222-R5-J1-PDC spheroids with HUVEC/MSC, viability", "assay_result": "131%"}

###

- Test system: 422866-222-R5-J1-PDC spheroids with HUVEC/MSC, viability
- assay_name: Anticancer human tumor 422866-222-R5-J1-PDC cell line growth inhibition [GQUAD];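 further: spheroids exposed to compounds for seven days before reading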;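 on viability, T/C: percent viability relative to DMSO vehicle control taken as 100%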
- condition_summary: second compound 0.1 µM; first compound 1 µM; stronger effect = lower value
- Text: DNA G-quadruplex Stabilizer Agents in Combinations in Complex Spheroids A high-throughput screen of multi-cell type tumor spheroids was designed to identify active combinations of DNA G-quadruplex stabilizer agents and targeted small molecules. […] Compounds. […] If the clinical Cmax for an agent had not been determined, the highest concentration tested was 10 microM. […]
Recorded measurements of viability, T/C, one per entry

{"compound": "O=C(c1cc(Cc2n[nH]c(=O)c3ccccc23)ccc1F)N1CCN(C(=O)C2CC2)CC1 + Cc1cnc(CNC(=O)c2c(=O)c3ccc(N4CCCN(C)CC4)nc3n3c2sc2ccccc23)cn1", "viability, T/C [%]": 83.7}
{"compound": "Cc1cccc(N(C)C(=O)C2C(O)CCN2c2nc(C)cc(C(F)(F)F)c2C#N)c1 (stereo unspecified) + CN(C)c1ccc(Nc2c3ccc(NC(=O)CCN4CCCC4)cc3nc3cc(NC(=O)CCN4CCCC4)ccc23)cc1", "viability, T/C [%]": 80.1}
{"compound": "Cc1cccc(N(C)C(=O)C2C(O)CCN2c2nc(C)cc(C(F)(F)F)c2C#N)c1 (stereo unspecified) + Cc1cnc(CNC(=O)c2c(=O)c3ccc(N4CCCN(C)CC4)nc3n3c2sc2ccccc23)cn1", "viability, T/C [%]": 83.7}
{"compound": "CC1COCCN1c1cc(C2(S(C)(=N)=O)CC2)nc(-c2ccnc3[nH]ccc23)n1 (stereo unspecified) + Cc1[nH]c2ccc(F)cc2c1-c1nc2c3cccnc3c3ncccc3c2[nH]1", "viability, T/C [%]": 62.2}
{"compound": "C=CCn1c(=O)c2cnc(Nc3ccc(N4CCN(C)CC4)cc3)nc2n1-c1cccc(C(C)(C)O)n1 + Cc1[nH]c2ccc(F)cc2c1-c1nc2c3cccnc3c3ncccc3c2[nH]1", "viability, T/C [%]": 146}
{"compound": "CC1COCCN1c1cc(-c2ccnn2C)c2ccnc(-c3ccn[nH]3)c2n1 (stereo unspecified) + Cc1cnc(CNC(=O)c2c(=O)c3ccc(N4CCCN(C)CC4)nc3n3c2sc2ccccc23)cn1", "viability, T/C [%]": 41.6}

###

- System: 422866-222-R5-J1-PDC spheroids with HUVEC/MSC, viability
- assay_name: Anticancer human tumor 422866-222-R5-J1-PDC cell line growth inhibition [GQUAD];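 further: spheroids exposed to compounds for seven days before reading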;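 on viability, T/C: percent viability relative to DMSO vehicle control taken as 100%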
- condition_summary: second compound 3.16 µM; first compound 1 µM; stronger effect = lower value
Note to self: use TRUE only for viability, T/C readings below 70%; a reading exactly at 70% still gets FALSE.

{"compound": "CC1COCCN1c1cc(C2(S(C)(=N)=O)CC2)nc(-c2ccnc3[nH]ccc23)n1 (configuration not stated) + Cc1[nH]c2ccc(F)cc2c1-c1nc2c3cccnc3c3ncccc3c2[nH]1", "tgt": "422866-222-R5-J1-PDC spheroids with HUVEC/MSC, viability", "label_class": "TRUE"}
{"compound": "Nc1ccn(C2OC(CO)C(O)C2(F)F)c(=O)n1 (configuration not stated) + Cc1cnc(CNC(=O)c2c(=O)c3ccc(N4CCCN(C)CC4)nc3n3c2sc2ccccc23)cn1", "tgt": "422866-222-R5-J1-PDC spheroids with HUVEC/MSC, viability", "label_class": "FALSE"}
{"compound": "O=c1[nH]cc(F)c(=O)[nH]1 + Cc1[nH]c2ccc(F)cc2c1-c1nc2c3cccnc3c3ncccc3c2[nH]1", "tgt": "422866-222-R5-J1-PDC spheroids with HUVEC/MSC, viability", "label_class": "FALSE"}
{"compound": "C=CCn1c(=O)c2cnc(Nc3ccc(N4CCN(C)CC4)cc3)nc2n1-c1cccc(C(C)(C)O)n1 + Cc1[nH]c2ccc(F)cc2c1-c1nc2c3cccnc3c3ncccc3c2[nH]1", "tgt": "422866-222-R5-J1-PDC spheroids with HUVEC/MSC, viability", "label_class": "FALSE"}
{"compound": "O=C(c1cc(Cc2n[nH]c(=O)c3ccccc23)ccc1F)N1CCN(C(=O)C2CC2)CC1 + Cc1cnc(CNC(=O)c2c(=O)c3ccc(N4CCCN(C)CC4)nc3n3c2sc2ccccc23)cn1", "tgt": "422866-222-R5-J1-PDC spheroids with HUVEC/MSC, viability", "label_class": "FALSE"}
{"compound": "Cc1cccc(N(C)C(=O)C2C(O)CCN2c2nc(C)cc(C(F)(F)F)c2C#N)c1 (configuration not stated) + Cc1[nH]c2ccc(F)cc2c1-c1nc2c3cccnc3c3ncccc3c2[nH]1", "tgt": "422866-222-R5-J1-PDC spheroids with HUVEC/MSC, viability", "label_class": "FALSE"}
{"compound": "COc1cccc2c1C(=O)c1c(O)c3c(c(O)c1C2=O)CC(O)(C(=O)CO)CC3OC1CC(N)C(O)C(C)O1 (configuration not stated) + CN(C)c1ccc(Nc2c3ccc(NC(=O)CCN4CCCC4)cc3nc3cc(NC(=O)CCN4CCCC4)ccc23)cc1", "tgt": "422866-222-R5-J1-PDC spheroids with HUVEC/MSC, viability", "label_class": "TRUE"}
{"compound": "CC1COCCN1c1cc(C2(O)CC3CCC(C2)O3)c2cnn(-c3ccn[nH]3)c2n1 (configuration not stated) + Cc1cnc(CNC(=O)c2c(=O)c3ccc(N4CCCN(C)CC4)nc3n3c2sc2ccccc23)cn1", "tgt": "422866-222-R5-J1-PDC spheroids with HUVEC/MSC, viability", "label_class": "TRUE"}
{"compound": "CC(C)n1c(=O)n(C)c2cnc3cc(F)c(-c4ccc(OCCCN5CCCCC5)nc4)cc3c21 + Cc1[nH]c2ccc(F)cc2c1-c1nc2c3cccnc3c3ncccc3c2[nH]1", "tgt": "422866-222-R5-J1-PDC spheroids with HUVEC/MSC, viability", "label_class": "FALSE"}
{"compound": "CCCS(=O)(=O)Nc1ccc(F)c(C(=O)c2c[nH]c3ncc(-c4ccc(Cl)cc4)cc23)c1F + Cc1[nH]c2ccc(F)cc2c1-c1nc2c3cccnc3c3ncccc3c2[nH]1", "tgt": "422866-222-R5-J1-PDC spheroids with HUVEC/MSC, viability", "label_class": "TRUE"}
{"compound": "O=c1[nH]cc(F)c(=O)[nH]1 + Cc1cnc(CNC(=O)c2c(=O)c3ccc(N4CCCN(C)CC4)nc3n3c2sc2ccccc23)cn1", "tgt": "422866-222-R5-J1-PDC spheroids with HUVEC/MSC, viability", "label_class": "FALSE"}
